System: Mycobacterium tuberculosis
EXPERIMENTAL_DETAILS: Antitubercular activity against Mycobacterium tuberculosis H37Rv
Type: functional
t if MIC is below 0.1 µM. f if not; exact matches included in f.

Prompt line: Criterion: MIC strictly below 0.1 µM. Is it met by `c1cc2c(s1)CCOC21CCN(Cc2ccc3c(c2)OCCO3)CC1` ?
Response line: f

Prompt line: Given the entry `CCc1ccc([C@H]2C[C@@H](C(F)(F)F)n3ncc(C(=O)NCc4ccc(OC)cc4)c3N2)cc1` , would its reported MIC be below 0.1 µM?
Response line: f

Prompt line: State whether 0.1 µM exceeds MIC recorded for `FC(F)(F)Oc1ccc(Oc2ccc(CN3CCC4(CC3)OCCc3sccc34)cc2)cc1` .
Response line: t

Prompt line: Confirm or reject: MIC of `COc1ccc(-c2cc(CN3CCSCC3)c(C)n2-c2ccc(F)cc2)cc1` lies strictly below 0.1 µM
Response line: f

Prompt line: Does this compound meet the criterion MIC < 0.1 µM? `Cc1c(CN2CCOCC2)cc(-c2ccc(C(C)C)cc2)n1-c1ccc(F)cc1`
Response line: f

Prompt line: Please state whether MIC is below 0.1 µM for `CCc1ccc([C@H]2C[C@@H](C(F)(F)F)n3ncc(C(=O)NCc4ccc5c(c4)OCO5)c3N2)cc1`
Response line: f

* * *

Kindly supply the reported CLH values for the records listed here.
EXPERIMENTAL_DETAILS: Clearance in mouse microsomes
Assay type: ADME, Microsome
I only need the number, in mL/min/g, no unit after it.

Prompt line: Return the recorded CLH value; entry: `Cc1c(CN2CCOCC2)cc(-c2ccc(C(C)C)cc2)n1-c1ccc(F)cc1`
Response line: 1.4

Prompt line: Report CLH for `COc1ccc(-c2cc(CN3CCSCC3)c(C)n2-c2ccc(F)cc2)cc1`
Response line: 18.76

Prompt line: State, in one line, measured CLH of `FC(F)(F)Oc1ccc(Oc2ccc(CN3CCC4(CC3)OCCc3sccc34)cc2)cc1`
Response line: 1.2

* * *

So I've got a bunch of compounds here, and I need their CL/F values.
EXPERIMENTAL_DETAILS: Clearance in mouse at 25 mg/kg, po
Format: ADME, organism-based
EXPERIMENTAL_CONTEXT: in vivo
Value expressed in mL/min/kg; do not type the unit.

Prompt line: Tell me CL/F reported for `CC1(C)CCC(NC(=O)c2cc3c(Cl)cc(Cl)cc3[nH]2)CC1`
Response line: 18.1

Prompt line: Respond only with CL/F recorded for `CC1(C)CCC(NC(=O)c2cc3c(F)cc(F)cc3[nH]2)CC1`
Response line: 18.7
